Measured values drawn from ChEMBL document CHEMBL1148329 for this set.

Listed here: molecules with reported pKi for Alpha-1A adrenergic receptor (Bos taurus).
Remember the convention: pKi equals -log10 of concentration in molar.

Worked cases, answers included:
// pKi value for Oc1cccc2c1CCCC2c1c[nH]cn1 (centres undefined) : 6.94

The molecule listed as CN(C)S(=O)(=O)Nc1cccc2c1CCCC2c1c[nH]cn1 (centres undefined) has a reported pKi of 6.01

Item: O=S(=O)(Nc1cccc2c1CCCC2c1c[nH]cn1)c1ccc2ccccc2c1 (centres undefined) | pKi: 6.16

Now, please, on to the next molecule.
pKi for COC(=O)Nc1cccc2c1CCCC2c1c[nH]cn1 (centres undefined) is 6.83

----------
- measurementTarget: Alpha-2A adrenergic receptor (Homo sapiens, UniProt P08913)
- Sequence (P08913 whole entry): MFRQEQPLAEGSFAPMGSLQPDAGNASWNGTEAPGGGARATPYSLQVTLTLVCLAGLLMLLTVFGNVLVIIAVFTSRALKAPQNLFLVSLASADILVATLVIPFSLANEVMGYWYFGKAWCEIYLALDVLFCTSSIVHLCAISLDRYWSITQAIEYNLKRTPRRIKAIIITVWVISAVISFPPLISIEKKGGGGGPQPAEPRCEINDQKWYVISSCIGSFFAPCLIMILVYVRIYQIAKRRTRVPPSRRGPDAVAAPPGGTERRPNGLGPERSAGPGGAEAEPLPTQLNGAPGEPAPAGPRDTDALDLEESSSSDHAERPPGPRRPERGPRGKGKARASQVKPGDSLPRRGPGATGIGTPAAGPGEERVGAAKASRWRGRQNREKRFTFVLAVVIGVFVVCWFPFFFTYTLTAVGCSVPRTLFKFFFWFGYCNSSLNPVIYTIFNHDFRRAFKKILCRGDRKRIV
pKi: −log10 of the molar value.
Output y for pKi not less than 7; output n otherwise.

# count of solved cases: 5
Form field: pKi at least 7? Entry: CCS(=O)(=O)Nc1cccc(Cc2c[nH]cn2)c1
n

# check: pKi of O=C(Nc1cccc2c1CCCC2c1c[nH]cn1)C(F)(F)F (centres undefined) is greater than or equal to 7
n

Is reported pKi greater than or equal to 7 here: Oc1cccc2c1CCCC2c1c[nH]cn1 (centres undefined)
y

Decide: pKi of O=S(=O)(CC(F)(F)F)Nc1cccc2c1CCCC2c1c[nH]cn1 (single isomer, unassigned; (+)) >= 7?
n

Kindly determine if pKi recorded for CC(N)C(O)c1ccccc1 (centres undefined) is above or exactly 7.
n

Others:
Hi team, for COc1ccc(OC)c(C(O)CN)c1 (centres undefined) , is the recorded pKi at or above 7?
n

----------
Each entry below carries its reported pD2.
- measurementTarget: Alpha-1B adrenergic receptor (Rattus norvegicus)
- Sequence (whole entry): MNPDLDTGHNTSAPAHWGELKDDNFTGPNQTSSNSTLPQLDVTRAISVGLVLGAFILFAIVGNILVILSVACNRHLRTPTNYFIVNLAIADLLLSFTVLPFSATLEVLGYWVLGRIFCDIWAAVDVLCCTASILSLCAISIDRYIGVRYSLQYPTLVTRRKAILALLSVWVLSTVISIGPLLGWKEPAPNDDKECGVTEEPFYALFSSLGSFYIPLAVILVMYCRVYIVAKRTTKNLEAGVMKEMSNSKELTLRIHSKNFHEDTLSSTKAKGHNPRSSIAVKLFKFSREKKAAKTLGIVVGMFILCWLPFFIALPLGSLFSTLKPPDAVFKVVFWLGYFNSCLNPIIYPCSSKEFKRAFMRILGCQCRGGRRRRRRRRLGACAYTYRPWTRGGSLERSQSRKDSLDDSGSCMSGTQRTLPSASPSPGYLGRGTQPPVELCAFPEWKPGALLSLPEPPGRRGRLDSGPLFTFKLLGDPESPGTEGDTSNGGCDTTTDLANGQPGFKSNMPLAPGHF
- experimentDescription: Functional agonism of the compounds to constrict tissue containing the alpha-1B adrenergic receptor in rat spleen
- Type: tissue-based

Sure, the documented pD2 for CC(N)C(O)c1ccccc1 (stereo not given) is 3.55

# compound O=C(Nc1cccc2c1CCCC2c1c[nH]cn1)C(F)(F)F (stereo not given) ; its pD2 = 5.47

Next:
Measured pD2 of COc1ccc(OC)c(C(O)CN)c1 (stereo not given) : 4.07

The value of pD2 measured for the compound COc1ccc(NS(C)(=O)=O)c2c1C(c1c[nH]cn1)CCC2 (stereo not given) turned out to be 4.74

Recorded result, CN(c1cccc2c1CCCC2c1c[nH]cn1)S(C)(=O)=O (stereo not given) , pD2: 5.65
